B1: SPSB1 (parent)
chain: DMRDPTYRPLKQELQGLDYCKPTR

variants of: B1; assay: protein stability index of a GFP-peptide fusion (GPS, HEK-293T) (PSI 1-6); higher = more stable; settings: c terminus: a fixed tail appended;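 also: lentivirally expressed fusions sorted by FACS into six bins by GFP to DsRed ratio, PSI derived from sequencing read proportions per bin multiplied by bin number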
For each record, write down the corresponding protein stability index.
Answers are plain numbers.

Solved entries (count: 6):
sequenceRecord | protein stability index
DMRDPTYRPLKQELQGLDYCKPTD [R24D] | 4.59
DMRDPTYQPLKQELQGLDYCKPTR [R8Q] | 3.83
DMMDPTYRPLKQELQGLDYCKPTR [R3M] | 2.99
DMRDPTYRPLKQELQGTDYCKPTR [L17T] | 4.29
DMRDPTYRPTKQELQGLDYCKPTR [L10T] | 3.74
DMRDPTYRVLKQELQGLDYCKPTR [P9V] | 3.19

Please state, for each entry, its recorded protein stability index.
1. DMRDPTYRPWKQELQGLDYCKPTR [L10W]
2. DMRDPTYRPLYQELQGLDYCKPTR [K11Y]

[3.24, 4.04]

Please state, for each entry, its recorded protein stability index.
1. DMRDPTYRPLKQELQGLDYCKPTY [R24Y]
2. DMRDPTYRPLKQEWQGLDYCKPTR [L14W]
3. DMRDPTVRPLKQELQGLDYCKPTR [Y7V]
4. DMRDPTYRPGKQELQGLDYCKPTR [L10G]

1. 2.21
2. 2.96
3. 3.5
4. 3.49

Please state, for each entry, its recorded protein stability index.
1. DMRDPTYRELKQELQGLDYCKPTR [P9E]
2. DMRDPTYRPLKEELQGLDYCKPTR [Q12E]
3. AMRDPTYRPLKQELQGLDYCKPTR [D1A]
4. DSRDPTYRPLKQELQGLDYCKPTR [M2S]
5. DMRDPTYRPLKQELQGLDYCKPQR [T23Q]
6. DMKDPTYRPLKQELQGLDYCKPTR [R3K]
7. DMRDPTYRPCKQELQGLDYCKPTR [L10C]

[3.67, 2.87, 2.45, 3.77, 3.47, 3.2, 2.6]

Please state, for each entry, its recorded protein stability index.
1. DMRDPTYRPLKQELQGLDYSKPTR [C20S]
2. DMRDPTYRPLKQELQGLDYCKNTR [P22N]
3. DMRDWTYRPLKQELQGLDYCKPTR [P5W]

1. 4.11
2. 3.92
3. 2.76
